# reported IC50, SKBR-3 viability, MMAF conjugate, first unlabelled column (+/- human transferrin); entries follow
- Target System: CD71 on SK-BR-3 cells (human, UniProt P02786 1-760)
- Sequence (P02786 whole entry): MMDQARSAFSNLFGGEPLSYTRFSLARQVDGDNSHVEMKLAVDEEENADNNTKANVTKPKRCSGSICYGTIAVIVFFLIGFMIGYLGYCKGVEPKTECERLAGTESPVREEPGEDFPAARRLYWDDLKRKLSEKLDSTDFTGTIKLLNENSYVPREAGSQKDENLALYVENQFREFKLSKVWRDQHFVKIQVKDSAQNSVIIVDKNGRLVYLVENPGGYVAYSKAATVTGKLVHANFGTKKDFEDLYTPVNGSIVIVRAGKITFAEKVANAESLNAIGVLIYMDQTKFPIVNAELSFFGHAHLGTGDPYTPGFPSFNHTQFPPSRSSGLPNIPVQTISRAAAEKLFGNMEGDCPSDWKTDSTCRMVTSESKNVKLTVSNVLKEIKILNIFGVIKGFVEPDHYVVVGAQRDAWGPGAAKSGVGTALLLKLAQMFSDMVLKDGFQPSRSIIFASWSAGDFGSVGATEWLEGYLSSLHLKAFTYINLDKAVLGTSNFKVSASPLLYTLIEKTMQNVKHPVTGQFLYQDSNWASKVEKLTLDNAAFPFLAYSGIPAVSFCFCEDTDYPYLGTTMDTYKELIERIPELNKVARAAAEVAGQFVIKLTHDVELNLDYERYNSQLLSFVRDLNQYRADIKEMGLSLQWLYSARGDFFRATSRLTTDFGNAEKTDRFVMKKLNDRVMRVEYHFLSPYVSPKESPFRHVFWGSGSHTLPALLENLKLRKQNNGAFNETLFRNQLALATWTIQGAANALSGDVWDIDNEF
- Experiment Description: cell-based or functional assay
Readout: IC50, SKBR-3 viability, MMAF conjugate, first unlabelled column (+/- human transferrin) (nM)

| Binder | Assay Result |
| --- | --- |
| SEQ ID NO 149 (designed binder, FN3 domain) MLPAPKNLVVSRVTEDSARLSWTAPDAAFDSFIIPYAEVRPDGEAIVLTVPGSERSYDLTGLKPGTEYSVLIHGVKGGKLSEPLSAIFTT | 9.7 |
| SEQ ID NO 190 (designed binder, FN3 domain) MLPAPKNLVVSRVTEDSARLSWTAPDAAFDSFFIGYPEYPATGEAITLFVPGSERSYDLTGLKPGTEYNVVIQGVKGGRPSNPLVVAFTT | 36 |
| SEQ ID NO 96 (designed binder) MLPAPKNLVVSRVTEDSARLSWTAPDAAFDSFFIGYLEPQPPGEAIVLTVPGSERSYDLTGLKPGTEYNVTIQGVKGGFPSMPLSAIFTT | 79.5 |
| SEQ ID NO 284 (designed binder) MLPAPKNLVVSRVTEDSARLSWTAPDAAFDSFFIGYLEPQPPGEAIVLTVPGSERSYDLTGLKPGTEYNVTIQGVKGGFPSMPLSAIFTT | 98 |
| SEQ ID NO 104 (designed binder, FN3 domain) MLPAPKNLVVSHVTEDSARLSWTAPDAAFDSFDIEYYELVGSGEAIVLTVPGSERSYDLTGLKPGTEYYVAIYGVKGGYLSRPLSAIFTT | 301 |
| SEQ ID NO 152 (designed binder, FN3 domain) MLPAPKNLVVSRVTEDSARLSWTAPDAAFDSFFIGYLEPQPPGEAIVLTVPGSERSYDLTGLKPGTEYNVTIQGVKGGFPSSPLSAIFTT | 19.6 |
| SEQ ID NO 235 (designed binder, FN3 domain) MLPAPKNLVVSRVTEDSARLSWTAPDAAFDSFSINYREWWSDGEAIYLPVPGSERSYDLTGLKPGTEYAVYIQGVKGGSRSFPLHAWFTT | 1.75 |

Ref: patent US20210145976A1
